# ASSAYED SYSTEM: T1, human Trop-2 expressed on cell surface (human, UniProt P09758 27-323)
# T1 sequence (looked up): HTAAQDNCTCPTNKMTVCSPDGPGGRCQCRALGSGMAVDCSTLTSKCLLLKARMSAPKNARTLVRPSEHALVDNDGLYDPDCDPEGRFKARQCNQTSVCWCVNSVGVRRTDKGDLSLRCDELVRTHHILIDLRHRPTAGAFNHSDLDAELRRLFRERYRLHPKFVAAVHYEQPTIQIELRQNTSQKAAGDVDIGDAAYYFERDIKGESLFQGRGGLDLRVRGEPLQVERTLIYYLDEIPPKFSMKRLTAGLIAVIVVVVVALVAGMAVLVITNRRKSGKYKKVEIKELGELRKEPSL
# EXPERIMENT DESCRIPTION: cell-based or functional assay
RESULT TYPE: EC50 of ADCC (NFAT-CD16 reporter), MDA-MB-231 (nM)

| BINDER | NUMERIC READOUT |
| --- | --- |
| 9D7 (antibody, V domains shown, Rabbit-derived clone; LEM construct: VH + rabbit IgG CH1 + human IgG1 CH2-CH3) VH: QSLEESGGDLVQPGASLTLTCKASGFDLNNYSILWVRQAPGKGLEWIGCIYISGGSTYYANWAKGRFAISKTSSTTVTLQMTSLTAADTATYFCARDDGTASYYLNLWGPGTLVTVSS VL: YDMTQTPASVSEPVGGTVTIKCQASEDIYKLLAWYQQKPGQPPKLLIYAASDLESGVPSRFKGRGSGTDYTLTISDLECADAATYYCQQAYTIGNIDNSFGGGTEVVVK | 0.09 |
| 65D5 (antibody, V domains shown, Rabbit-derived clone; LEM construct: VH + rabbit IgG CH1 + human IgG1 CH2-CH3) VH: QEQLKESGGGLVQPGGSLKLSCKASGFDFNAYGVSWVRQAPGKGLEWIAYIYPAFHNTYYATWVNGRFTISSHNAQNTLYLQLNTLTAADTATYFCARDAGTTDYNFNLWGPGTLVTVSS VL: DIVMTQTPASVSEPVGGTVTIKCQASQSISSYLAWYQQKPGQPPKLLIYEATKLTSGVSSRFSGSGYGTEFTLTISGVECADAATYYCQQALTVGDVDNPFGGGSEVVVK | 0.05 |
| 10A9 (antibody, V domains shown, Rabbit-derived clone; LEM construct: VH + rabbit IgG CH1 + human IgG1 CH2-CH3) VH: QSLEESGGDLVQPGASLTLTCKASGFDLNNYAMLWVRQAPGKGLEWIGCIYISGGTTYFASWATGRFAISKTSSTTVTLQMTSLTAADTATYFCARDDGTTSYYLNLWGPGTLVTVSS VL: YDMTQTPASVSAAVGGTVTIKCQASEDIYSLLAWYQQKPGQPPKLLIYGASNLESGVPSRFKGSGSGTEYTLTISDLECDDAATYYCQQAYTIGNIDNAFGGGTEVVVK | 0.06 |
